Attribution: ChEMBL document CHEMBL1155302

- protocolNotes: Cytotoxicity against human HSF cells assessed as cell viability at 100 uM after 24 hrs by MTT assay relative to control
- Assay type: cell-based
- reportedConditions: read-out: Activity
quantityName: viability at 24 h, 100 µM (%)
Answer in %, number only, no unit symbol.

Record request: viability at 24 h, 100 µM value, item O=c1c(-c2ccccc2)nnc2n1CCN2c1cccc(Cl)c1
88

Record request: viability at 24 h, 100 µM value, item COc1ccc(N2CCn3c2nnc(-c2ccccc2)c3=O)cc1
73

Record request: viability at 24 h, 100 µM value, item O=c1c(-c2ccccc2)nnc2n1CCN2c1ccccc1Cl
104

Record request: viability at 24 h, 100 µM value, item O=c1c(-c2ccccc2)nnc2n1CCN2c1cc(Cl)ccc1Cl
17

Record request: viability at 24 h, 100 µM value, item Cc1cccc(N2CCn3c2nnc(-c2ccccc2)c3=O)c1
88

Record request: viability at 24 h, 100 µM value, item O=c1c(-c2ccccc2)nnc2n1CCN2c1ccc(Cl)cc1
102

Record request: viability at 24 h, 100 µM value, item O=c1c(-c2ccccc2)nnc2n1CCN2c1ccc(Cl)c(Cl)c1
47
